Entries and their normalized RNA/DNA level without ligand (log10)
B1: library; a variant is named by its letters at N, in order (parent)
chain: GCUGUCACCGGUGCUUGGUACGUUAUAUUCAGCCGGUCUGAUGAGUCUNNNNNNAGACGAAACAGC

# Variants of: B1
# Assay overview: normalized RNA/DNA level without ligand (relative to sTRSVctl = 100) (log10 (% of sTRSVctl)); HEK293T overexpressing SLC46A1; higher = less ribozyme self-cleavage, higher mRNA level
# Study conditions: without (6R,S)-folinic acid; ligand present: no
The reply should be a number, written without any unit.

AGAAAU; 2.03
ACGCCA; 2.04

Which value of normalized RNA/DNA level without ligand (log10) has been reported for AACUAC in the records? 2

Which value of normalized RNA/DNA level without ligand (log10) has been reported for CUUCUU in the records? 2.02

Which value of normalized RNA/DNA level without ligand (log10) has been reported for CCUCUG in the records? 2.04

Which value of normalized RNA/DNA level without ligand (log10) has been reported for UAGAAC in the records? 1.98

Which value of normalized RNA/DNA level without ligand (log10) has been reported for GAAGCG in the records? 1.93

Which value of normalized RNA/DNA level without ligand (log10) has been reported for AUAUCC in the records? 2.04

Which value of normalized RNA/DNA level without ligand (log10) has been reported for GGUAUG in the records? 1.99

Which value of normalized RNA/DNA level without ligand (log10) has been reported for UUGACA in the records? 1.96

Which value of normalized RNA/DNA level without ligand (log10) has been reported for AUUAUG in the records? 1.94

Which value of normalized RNA/DNA level without ligand (log10) has been reported for UCCGCG in the records? 1.84

Which value of normalized RNA/DNA level without ligand (log10) has been reported for CUCUUU in the records? 2.01

Which value of normalized RNA/DNA level without ligand (log10) has been reported for CGACUG in the records? 2.03

Which value of normalized RNA/DNA level without ligand (log10) has been reported for CCCGUU in the records? 2.06

Which value of normalized RNA/DNA level without ligand (log10) has been reported for CCGUGG in the records? 2.02

Which value of normalized RNA/DNA level without ligand (log10) has been reported for UGAAGG in the records? 1.65
